Tested on: SNB-75 CNS
experiment: NCI-60 one-dose screen, 48 h (100 = growth as untreated, 0 = no growth, -100 = all killed)
recorded.conditions: 10 µM
This is part of a sample that, as a whole, favours compounds with a hit. Of some 83,000 tested, about 20% had one in any assay.
Class boundaries, taken from values of growth, are as follows: low range = under 70%, mid range = from 70% up to 90%, high range = 90% and over

# molecule, target.or.system, group.label
rows = [
    ("Cn1c([N+](=O)[O-])cnc1/C=C1\\Oc2ccccc2C1=O", "SNB-75 CNS", "low range"),
    ("CN(C)Cc1cn(-c2ncc(-c3ccc(C(F)(F)F)cc3)c(NC3CCCCCC3)n2)nn1", "SNB-75 CNS", "mid range"),
    ("O=S(=O)(NCCNc1nccc(-c2c(-c3ccc(F)cc3)nc3sccn23)n1)c1ccc2ccccc2c1", "SNB-75 CNS", "mid range"),
    ("O=C(CC(c1ccccc1)N1CCOCC1)c1ccccc1 (configuration not stated)", "SNB-75 CNS", "mid range"),
    ("Cc1c(Cl)cccc1NC(=O)c1sc2nc3c(cc2c1N)C(=O)CCC3", "SNB-75 CNS", "low range"),
    ("O=[N+]([O-])c1cccc(N=Cc2ccc3c(c2)OCO3)c1", "SNB-75 CNS", "high range"),
    ("CCCCCCCCCCCCCCCCCC(=O)OCCCCCCC", "SNB-75 CNS", "high range"),
    ("Cc1ccc(NC(=O)Nc2nc3ccccc3s2)cc1NC(=O)Nc1nc2ccccc2s1", "SNB-75 CNS", "low range"),
]

QUERY: Pick a category. Item: CCOC(=O)c1ccc(NC(=O)Nc2ncc(Cl)cc2Cl)cc1
RESULT: high range

QUERY: Similarly, COc1cc2cc3c(nc2cc1OC)CCN3Cc1ccc(NC(=O)c2ccc(Cl)c(C(F)(F)F)c2)cc1 ?
RESULT: low range

QUERY: Similarly, N#Cc1cccc(OCc2nc(N)nc(N)c2-c2ccc(Cl)c(Cl)c2)c1 ?
RESULT: low range

QUERY: Similarly, COc1ccc(-c2nc3ncccn3c2-c2nnc(-c3ccc(F)cc3)o2)cc1 ?
RESULT: high range

QUERY: Similarly, CC(=O)c1cc(Cl)ccc1O ?
RESULT: high range

====

Tested on: 786-0 renal
experiment: NCI-60 one-dose screen, 48 h (100 = growth as untreated, 0 = no growth, -100 = all killed)
recorded.conditions: 10 µM
About 83,000 compounds went through this panel and 20% of them were active in at least one assay; those are over-represented in the sample as a whole.
property: growth (%)
Field: numeric (%). Do not append units.

# compound, units.of.measure, quantitative.result
records = [
    ("CC/C(C)=C(\\C)C(=O)O", "%", 98.5),
]

QUERY: Lab note: need growth with 786-0 renal for entry CC1CC(=O)OC(C)C1 (configuration not stated) , please look it up.
RESULT: 101

====

System: UO-31 renal
experiment: NCI-60 one-dose screen, 48 h (100 = growth as untreated, 0 = no growth, -100 = all killed)
recorded.conditions: 10 µM
Compounds without any hit were thinned out: in the full panel of roughly 83,000, 20% have a hit.
Each entry below carries its reported growth.
Field: numeric (%). Do not append units.

See these solved cases before continuing.
# compound, target.or.system, units.of.measure, growth
measured = [
    ("Nc1c(C(=O)Nc2ccccc2)sc2nc3c(cc12)C(O)CCC3 (stereo not given)", "UO-31 renal", "%", 49.4),
    ("COC(=O)[C@@H]1[C@H](O)[C@H](C)[C@H](O)[C@@](C)(O)/C=C\\C=C(C)C(=O)Nc2c(C)c(OC(C)=O)c3c(c2O)C(=O)C(C)=C2OCOC(=C23)C(C)=C[C@@](C)(O)[C@H](O)[C@@H](C)[C@H]1OC(C)=O", "UO-31 renal", "%", 88.7),
    ("O=C(N/N=C/c1cc2ccccc2c2ccccc12)c1cc(O)c(O)c(O)c1", "UO-31 renal", "%", 39.2),
]

QUERY: Look up growth for this compound: O=C(Nc1ccccc1)Nc1cccc(-n2cc(-c3ccncc3)c(-c3ccc(O)c(Cl)c3)n2)c1
RESULT: 26.9

QUERY: Similarly, Clc1ccc(Sc2nc(NC3CC3)nc(Sc3ccc(Cl)cc3)n2)cc1 ?
RESULT: 62.3

QUERY: Similarly, COc1cc(Cl)cc(-c2nn(-c3cccc(NC(=O)Nc4ccc(Cl)c(Cl)c4)c3)cc2-c2ccncc2)c1 ?
RESULT: 0.635

QUERY: Similarly, O=C(Nc1cccc(Br)c1)c1cc(=O)[nH]c2ccccc12 ?
RESULT: 97.9

QUERY: Similarly, N#CCCN(NC(=O)OCc1ccccc1)C(=O)OCc1ccccc1 ?
RESULT: 80.7

QUERY: Similarly, CCOC(=O)N1C=CC2C=CC1C1C=CC=CC2N1C(=O)OCC (stereo not given) ?
RESULT: 83.4

QUERY: Similarly, COc1cc(-c2nc(Nc3nc4ccccc4s3)[nH]c(=O)c2C#N)cc(OC)c1O ?
RESULT: 88.1

====

Test system: MDA-MB-231 breast
experiment: NCI-60 one-dose screen, 48 h (100 = growth as untreated, 0 = no growth, -100 = all killed)
recorded.conditions: 10 µM
This is part of a sample that, as a whole, favours compounds with a hit. Of some 83,000 tested, about 20% had one in any assay.
property: growth (%)
Field: numeric (%). Do not append units.

See these solved cases before continuing.
# molecule.smiles, units.of.measure, growth
measured = [
    ("Cc1ccc(Nc2nnc(-c3cc(-c4ccncc4)n(-c4ccccc4)n3)s2)cc1", "%", 18.9),
    ("COc1cc(Cc2cc(-c3ccc(Cl)cc3)n[nH]c2=O)ccc1O", "%", 100),
    ("COc1ccc(Cn2c(C(N)=O)cc3c2-c2nc(N)ncc2CCC3)cc1", "%", 88.9),
    ("O=C(/C(=C/c1ccccc1)CN1CCCCC1)c1ccccc1", "%", -24.8),
]

QUERY: Look up growth for this molecule: CCOC(=O)c1ccc(NC(=O)Nc2ncc(Cl)cc2Cl)cc1
RESULT: 94

QUERY: Similarly, CS(=O)(=O)Nc1ccc(Nc2c3ccccc3nc3cc(N)ccc23)cc1 ?
RESULT: 85.8

====

Each entry below carries its reported growth.
Tested on: NCI/ADR-RES ovarian
experiment: NCI-60 one-dose screen, 48 h (100 = growth as untreated, 0 = no growth, -100 = all killed)
recorded.conditions: 10 µM
About 83,000 compounds went through this panel and 20% of them were active in at least one assay; those are over-represented in the sample as a whole.
Field: numeric (%). Do not append units.

See these solved cases before continuing.
# molecule.smiles, units.of.measure, growth
data = [
    ("Cc1cccc(NC2=C(C#N)C(=O)NC3(CCCC3)S2)c1", "%", 100),
    ("COc1cc(-c2cc(/C=C/C(=O)c3ccc(N)cc3)[nH]n2)cc(OC)c1OC", "%", 64.7),
    ("O=C(O)c1ccc(P(=O)(O)O)c([N+](=O)[O-])c1", "%", 108),
    ("O=C(Nc1cccc(-n2cc(-c3ccncc3)c(-c3ccc(O)c(Cl)c3)n2)c1)c1ccc(Cl)c(Cl)c1", "%", 49.6),
    ("CN(C)c1ccc(/C=C/C=N/NC(=O)c2cc(O)c(O)c(O)c2)cc1", "%", 102),
]

QUERY: Look up growth for this molecule: O=C(Cc1csc2nc(-c3ccc(Cl)cc3)cn12)N/N=C/c1ccccc1O
RESULT: 41.3

QUERY: Similarly, C#Cc1ccc(-n2c(/C=C/c3ccc4ccccc4c3)nc3ncccc3c2=O)cc1 ?
RESULT: 42.5

====

Test system: OVCAR-4 ovarian
experiment: NCI-60 one-dose screen, 48 h
recorded.conditions: 10 µM
This is part of a sample that, as a whole, favours compounds with a hit. Of some 83,000 tested, about 20% had one in any assay. The source made the active and inactive calls. How the source made its calls: active means growth percent below 10; inactive means the rest.
Valid outcomes are listed here; reply with one: YES (active), NO (inactive)

Use the examples below as a reference point.
# compound, group.label
records = [
    ("Nc1nc(N)c(NC(=O)CNc2ccc(C(=O)O)cc2)c(N)n1", "NO"),
    ("CC(C)N(CCNc1nc(C(Cl)(Cl)Cl)nc2cc(Cl)ccc12)C(C)C", "YES"),
    ("Cc1cccc(NC2=C(C#N)C(=O)NC3(CCCC3)S2)c1", "NO"),
    ("COc1cc(-c2cc(C(=O)N3CCN(C(=O)c4ccccc4NCc4ccco4)CC3)nc3cc(-c4ccccc4)nn23)cc(OC)c1OC", "NO"),
    ("COc1ccccc1CNCCCN1C(=O)c2ccc3c4c(ccc(c24)C1=O)C(=O)N(CCCN)C3=O", "YES"),
]

QUERY: Outcome logged for COc1ccc(C2=NN(C(=O)c3ccc(S(C)(=O)=O)cc3)C(c3ccc(OC)c(OC)c3)C2)c(OC)c1 (configuration not stated) in this assay:
RESULT: NO

QUERY: Similarly, COc1ccc(-c2nn(-c3cccc(NC(=O)Nc4cccc(C(F)(F)F)c4)c3)cc2-c2ccncc2)cc1Cl ?
RESULT: NO

QUERY: Similarly, C/C(=N\Nc1nc2ccccc2s1)c1ccncn1 ?
RESULT: YES

QUERY: Similarly, Nc1ccc2cc(S(=O)(=O)O)cc(O)c2c1N=Nc1ccc(F)cc1 ?
RESULT: NO

QUERY: Similarly, CCCCCCN1CCN(Cc2ccc(N(CC)CC)cc2)C(=O)C1=O ?
RESULT: NO

QUERY: Similarly, O=[N+]([O-])c1cccc(N=Cc2ccc3c(c2)OCO3)c1 ?
RESULT: NO

QUERY: Similarly, O=C(Nc1cccc(-n2cc(-c3ccncc3)c(-c3ccc(O)c(Cl)c3)n2)c1)Nc1cccc(C(F)(F)F)c1 ?
RESULT: YES

QUERY: Similarly, CC(=O)CSC(C)=O ?
RESULT: NO

QUERY: Similarly, CC(=O)O[C@]1(C)CC[C@H]2[C@H](CNCCc3ccc(Cl)cc3)C(=O)O[C@@H]2C2=C(C)C(=O)C[C@H]21 ?
RESULT: NO

QUERY: Similarly, CSc1cc(SC)ncn1 ?
RESULT: NO

QUERY: Similarly, Cc1ccc(C(=O)N2C/C(=C/c3ccccc3)C(=O)/C(=C/c3ccccc3)C2)cc1 ?
RESULT: NO

QUERY: Similarly, O=c1cc(-c2ccccc2)[nH]n1-c1nc2ccccc2[nH]1 ?
RESULT: NO
